assay details: Rat pharmacokinetics
Assay type: in vivo, Sprague-Dawley rats
condition context: male, Sprague-Dawley, PO 1 mg/kg, plasma

# compound smiles, Tmax
measured = [
    ("CC(C)c1nn([C@@H]2O[C@H](COS(N)(=O)=O)[C@@H](O)[C@H]2O)c2ncnc(N)c12", "30 min"),
]

---

assay details: Rat pharmacokinetics
Format: in vivo, Sprague-Dawley rats
condition context: male, Sprague-Dawley, PO 10 mg/kg, plasma
measured endpoint: Cmax (nM)

# compound smiles, experimental value
data = [
    ("CC(C)c1nn([C@@H]2O[C@H](COS(N)(=O)=O)[C@@H](O)[C@H]2O)c2ncnc(N)c12", 196),
]

All values here come from paper PMC11671014.
